// each record: one item and its GI50 for ACHN
State the answer as a number, implicitly in µM.

// known answers, use as guide
(Q) GET /values?readout=GI50&item= O=C(Nc1ccc(Cl)cc1)Nc1ccc(Nc2nncc3ccccc23)cc1
(A) 1.12

(Q) And O=C(Nc1ccccc1)Nc1ccc(Oc2nnc(Cl)c3ccccc23)cc1 [Compound 13a] ?
(A) 3.47

(Q) And Cc1nnc(Nc2ccc(NC(=O)Nc3ccc(Cl)cc3)cc2)c2ccccc12 ?
(A) 1.84

(Q) And COc1cccc(NCc2nnc(Nc3ccc(Cl)cc3)c3ccccc23)c1 [Compound 16d] ?
(A) 1.56

(Q) And Clc1ccc(Nc2nnc(COc3ccccc3)c3ccccc23)cc1 [Compound 17a] ?
(A) 2.35

---
(Q) GET /values?readout=GI50&item= O=C(Nc1ccc(Cl)cc1)Nc1ccc(Oc2nncc3ccccc23)cc1
(A) 1.05

(Q) And Clc1ccc(Nc2nnc(CNc3ccccc3)c3ccccc23)cc1 [Compound 16a] ?
(A) 3.1

====

# Test system: NCI/ADR-RES
# experimental details: NCI 60 cell panel SRB screen
# Format: cell-based
# measurement parameters: Homo sapiens, 5 log dose, 48 h, read-out: LC50 (the source's name)
parameter measured: CC50

// known answers, use as guide
(Q) Which measured CC50 belongs to O=C(Nc1ccc(Cl)cc1)Nc1ccc(Oc2nncc3ccccc23)cc1 , tested on NCI/ADR-RES?
(A) > 100 µM

(Q) And Clc1ccc(Nc2nnc(CNc3ccccc3)c3ccccc23)cc1 [Compound 16a] ?
(A) > 25 µM

(Q) And COc1cccc(NCc2nnc(Nc3ccc(Cl)cc3)c3ccccc23)c1 [Compound 16d] ?
(A) > 25 µM

(Q) And Clc1ccc(Nc2nnc(COc3ccccc3)c3ccccc23)cc1 [Compound 17a] ?
(A) > 25 µM

(Q) And Cc1nnc(Nc2ccc(NC(=O)Nc3ccc(Cl)cc3)cc2)c2ccccc12 ?
(A) > 100 µM

---
(Q) Which measured CC50 belongs to O=C(Nc1ccc(Cl)cc1)Nc1ccc(Nc2nncc3ccccc23)cc1 , tested on NCI/ADR-RES?
(A) > 100 µM

(Q) And O=C(Nc1ccccc1)Nc1ccc(Oc2nnc(Cl)c3ccccc23)cc1 [Compound 13a] ?
(A) 15.5 µM

====

# System: SR
# experimental details: NCI 60 cell panel SRB screen
# Type: cell-based
# measurement parameters: Homo sapiens, 5 log dose, 48 h, read-out: LC50 (the source's name)
List of CC50 values.

// known answers, use as guide
(Q) Which measured CC50 belongs to O=C(Nc1ccccc1)Nc1ccc(Oc2nnc(Cl)c3ccccc23)cc1 [Compound 13a] , tested on SR?
(A) > 25 µM

(Q) And O=C(Nc1ccc(Cl)cc1)Nc1ccc(Nc2nncc3ccccc23)cc1 ?
(A) > 100 µM

(Q) And O=C(Nc1ccc(Cl)cc1)Nc1ccc(Oc2nncc3ccccc23)cc1 ?
(A) > 100 µM

(Q) And Cc1nnc(Nc2ccc(NC(=O)Nc3ccc(Cl)cc3)cc2)c2ccccc12 ?
(A) > 100 µM

(Q) And Clc1ccc(Nc2nnc(COc3ccccc3)c3ccccc23)cc1 [Compound 17a] ?
(A) > 25 µM

(Q) And COc1cccc(NCc2nnc(Nc3ccc(Cl)cc3)c3ccccc23)c1 [Compound 16d] ?
(A) > 25 µM

# context switch: different molecule, same CC50
(Q) Which measured CC50 belongs to Clc1ccc(Nc2nnc(CNc3ccccc3)c3ccccc23)cc1 [Compound 16a] , tested on SR?
(A) > 25 µM

====

# Tested on: HOP-92
# experimental details: NCI 60 cell panel SRB screen
# Type: cell-based
# measurement parameters: Homo sapiens; HOP-92, single dose 10 μM; read-out: percent cell growth promotion
List of activity at 10 µM values.
State the answer as a number, implicitly in %.

(Q) GET /values?readout=activity at 10 µM&item= Cc1nnc(Nc2ccc(NC(=O)c3ccc(Cl)cc3)cc2)c2ccccc12
(A) 55.4

(Q) And Clc1ccc(Nc2nnc(COc3ccccc3)c3ccccc23)cc1 [Compound 17a] ?
(A) -28

---
(Q) GET /values?readout=activity at 10 µM&item= O=C(Nc1ccccc1)Nc1ccc(Oc2nnc(Cl)c3ccccc23)cc1 [Compound 13a]
(A) -7.51

(Q) And COc1cccc(NCc2nnc(Nc3ccc(Cl)cc3)c3ccccc23)c1 [Compound 16d] ?
(A) -32.8

(Q) And Cc1nnc(N2CCN(c3ccccn3)CC2)c2ccccc12 ?
(A) 119

====

# System: EKVX
In plain terms, low GI50, meaning strictly below 2 µM, gives satisfied, and everything else gives not satisfied.

(Q) Item O=C(Nc1ccc(Cl)cc1)Nc1ccc(Nc2nncc3ccccc23)cc1 : GI50 beneath 2 µM, strictly?
(A) not satisfied

====

# Tested on: SK-MEL-2
# experimental details: NCI 60 cell panel SRB screen
# Assay type: cell-based
# measurement parameters: SK-MEL-2, single dose 10 μM
List of percent cell growth promotion values.
State the answer as a number, implicitly in %.

(Q) GET /values?readout=percent cell growth promotion&item= Clc1ccc(Nc2nnc(COc3ccccc3)c3ccccc23)cc1 [Compound 17a]
(A) -26.47

---
(Q) GET /values?readout=percent cell growth promotion&item= O=C(Nc1ccc(Cl)cc1)Nc1ccc(Oc2nnc(Cl)c3ccccc23)cc1 [Compound 13b]
(A) 93.58

(Q) And COc1cccc(NCc2nnc(Nc3ccc(Cl)cc3)c3ccccc23)c1 [Compound 16d] ?
(A) -34.44

(Q) And Clc1ccc(Nc2nnc(CNc3ccccc3)c3ccccc23)cc1 [Compound 16a] ?
(A) 8.63

(Q) And O=C(Nc1ccccc1)Nc1ccc(Oc2nnc(Cl)c3ccccc23)cc1 [Compound 13a] ?
(A) 9.53

====

# System: NCI-H226
# experimental details: NCI 60 cell panel SRB screen
# Assay type: cell-based
# measurement parameters: Homo sapiens; NCI-H226, 5 log dose
List of IC (TGI) values.
State the answer as a number, implicitly in µM.

// known answers, use as guide
(Q) GET /values?readout=IC (TGI)&item= O=C(Nc1ccc(Cl)cc1)Nc1ccc(Nc2nncc3ccccc23)cc1
(A) 12.5

(Q) And O=C(Nc1ccc(Cl)cc1)Nc1ccc(Oc2nncc3ccccc23)cc1 ?
(A) 5.42

(Q) And Cc1nnc(Nc2ccc(NC(=O)Nc3ccc(Cl)cc3)cc2)c2ccccc12 ?
(A) 15.9

(Q) And O=C(Nc1ccccc1)Nc1ccc(Oc2nnc(Cl)c3ccccc23)cc1 [Compound 13a] ?
(A) 9.25

(Q) And Clc1ccc(Nc2nnc(CNc3ccccc3)c3ccccc23)cc1 [Compound 16a] ?
(A) 7.98

---
(Q) GET /values?readout=IC (TGI)&item= COc1cccc(NCc2nnc(Nc3ccc(Cl)cc3)c3ccccc23)c1 [Compound 16d]
(A) 6.82

(Q) And Clc1ccc(Nc2nnc(COc3ccccc3)c3ccccc23)cc1 [Compound 17a] ?
(A) 6.58

====

# Tested on: COLO 205
# experimental details: NCI 60 cell panel SRB screen
# Type: cell-based
# measurement parameters: Homo sapiens; COLO 205, 5 log dose
List of IC (TGI) values.
State the answer as a number, implicitly in µM.

// known answers, use as guide
(Q) GET /values?readout=IC (TGI)&item= COc1cccc(NCc2nnc(Nc3ccc(Cl)cc3)c3ccccc23)c1 [Compound 16d]
(A) 4.01

(Q) And O=C(Nc1ccc(Cl)cc1)Nc1ccc(Nc2nncc3ccccc23)cc1 [Compound 6b] ?
(A) 9.58

---
(Q) GET /values?readout=IC (TGI)&item= Clc1ccc(Nc2nnc(CNc3ccccc3)c3ccccc23)cc1 [Compound 16a]
(A) 5.39

(Q) And O=C(Nc1ccc(Cl)cc1)Nc1ccc(Oc2nncc3ccccc23)cc1 [Compound 7b] ?
(A) 2.92

(Q) And Clc1ccc(Nc2nnc(COc3ccccc3)c3ccccc23)cc1 [Compound 17a] ?
(A) 4.38

(Q) And Cc1nnc(Nc2ccc(NC(=O)Nc3ccc(Cl)cc3)cc2)c2ccccc12 [Compound 6e] ?
(A) 5.29

====

# Tested on: SK-OV-3
# experimental details: NCI 60 cell panel SRB screen
# Assay type: cell-based
# measurement parameters: Homo sapiens; SK-OV-3, 5 log dose
So basically: IC (TGI) at 8 µM or higher? That is criterion met. Lower than 8 µM? That is criterion not met.

// known answers, use as guide
(Q) // inclusive: IC (TGI) at least 8 µM? input: Cc1nnc(Nc2ccc(NC(=O)Nc3ccc(Cl)cc3)cc2)c2ccccc12 [Compound 6e]
(A) criterion not met

(Q) And O=C(Nc1ccccc1)Nc1ccc(Oc2nnc(Cl)c3ccccc23)cc1 [Compound 13a] ?
(A) criterion not met

(Q) And Clc1ccc(Nc2nnc(COc3ccccc3)c3ccccc23)cc1 [Compound 17a] ?
(A) criterion met

(Q) And O=C(Nc1ccc(Cl)cc1)Nc1ccc(Oc2nncc3ccccc23)cc1 [Compound 7b] ?
(A) criterion not met

(Q) And Clc1ccc(Nc2nnc(CNc3ccccc3)c3ccccc23)cc1 [Compound 16a] ?
(A) criterion met

Now look at this one.
(Q) // inclusive: IC (TGI) at least 8 µM? input: O=C(Nc1ccc(Cl)cc1)Nc1ccc(Nc2nncc3ccccc23)cc1 [Compound 6b]
(A) criterion met
